Catalogue of normalized RNA/DNA level without ligand (log10) readings, one per entry.
B1: library; a variant is named by its letters at N, in order (parent)
chain: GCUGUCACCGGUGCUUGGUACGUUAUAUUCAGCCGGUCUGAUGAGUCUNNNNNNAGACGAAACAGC

variants of: B1; experiment: normalized RNA/DNA level without ligand (relative to sTRSVctl = 100) (log10 (% of sTRSVctl)); HEK293T overexpressing SLC46A1; higher = less ribozyme self-cleavage, higher mRNA level; settings: without (6R,S)-folinic acid; ligand present: no
Give a plain numeric answer without units written out.

query: So what does the record say about normalized RNA/DNA level without ligand (log10) for GCUGUCACCGGUGCUUGGUACGUUAUAUUCAGCCGGUCUGAUGAGUCUGUUGCAAGACGAAACAGC ?
result: 2

query: So what does the record say about normalized RNA/DNA level without ligand (log10) for GCUGUCACCGGUGCUUGGUACGUUAUAUUCAGCCGGUCUGAUGAGUCUGCGACUAGACGAAACAGC ?
result: 2.05

query: So what does the record say about normalized RNA/DNA level without ligand (log10) for GCUGUCACCGGUGCUUGGUACGUUAUAUUCAGCCGGUCUGAUGAGUCUCAAGAAAGACGAAACAGC ?
result: 1.95

query: So what does the record say about normalized RNA/DNA level without ligand (log10) for GCUGUCACCGGUGCUUGGUACGUUAUAUUCAGCCGGUCUGAUGAGUCUCCUCAAAGACGAAACAGC ?
result: 2.03

query: So what does the record say about normalized RNA/DNA level without ligand (log10) for GCUGUCACCGGUGCUUGGUACGUUAUAUUCAGCCGGUCUGAUGAGUCUGGCGGUAGACGAAACAGC ?
result: 2.06

query: So what does the record say about normalized RNA/DNA level without ligand (log10) for GCUGUCACCGGUGCUUGGUACGUUAUAUUCAGCCGGUCUGAUGAGUCUCCCCUCAGACGAAACAGC ?
result: 2.05

query: So what does the record say about normalized RNA/DNA level without ligand (log10) for GCUGUCACCGGUGCUUGGUACGUUAUAUUCAGCCGGUCUGAUGAGUCUGAGACUAGACGAAACAGC ?
result: 2.02

query: So what does the record say about normalized RNA/DNA level without ligand (log10) for GCUGUCACCGGUGCUUGGUACGUUAUAUUCAGCCGGUCUGAUGAGUCUGAACACAGACGAAACAGC ?
result: 2

query: So what does the record say about normalized RNA/DNA level without ligand (log10) for GCUGUCACCGGUGCUUGGUACGUUAUAUUCAGCCGGUCUGAUGAGUCUACAGGUAGACGAAACAGC ?
result: 1.91

query: So what does the record say about normalized RNA/DNA level without ligand (log10) for GCUGUCACCGGUGCUUGGUACGUUAUAUUCAGCCGGUCUGAUGAGUCUUCCGUGAGACGAAACAGC ?
result: 1.78

query: So what does the record say about normalized RNA/DNA level without ligand (log10) for GCUGUCACCGGUGCUUGGUACGUUAUAUUCAGCCGGUCUGAUGAGUCUGACGGUAGACGAAACAGC ?
result: 1.99

Numbers sourced from the supplement of paper PMC6757056.
